- Test system: leukotriene generation by stimulated neutrophils
- assayProtocol: Inhibition of leukotriene generation in A23187-stimulated neutrophils in vitro
- Type: cell-based, human
- conditionInfo: neutrophils from unsupplemented volunteers, ionophore A23187; read-out: IC50 of inhibition of leukotriene generation (LTB4 and 20-OH LTB4)
measurementLabel: IC50

# molecule CCCCCC(O)/C=C/C=C\C/C=C\CCCCCCC(=O)O (stereo not shown) [15-HETrE, 15-OH-20:3, reference compound] ; its IC50 = ~5 µM

This collection of values is drawn from patent US8247449B2.
